Tested on: T. gondii tachyzoites RH strain
procedure details: Treatment of T. gondii-infected Vero cells (MTS-PMS assay)
Type: cell-based, Toxoplasma gondii
experimental setup: Vero Cell (EC50)/T. gondii EC50
Selectivity Index (SI) by entry:
metric: Selectivity Index (SI)

{"compound": "Nc1cc(Cl)ccc1N1C(=O)CCC1=O", "system under test": "T. gondii tachyzoites RH strain", "reported": 6.5}
{"compound": "CC1=C(C(N)=O)S(=O)(=O)c2ccccc21", "system under test": "T. gondii tachyzoites RH strain", "reported": 3.9}
{"compound": "NCCN1CCNCC1", "system under test": "T. gondii tachyzoites RH strain", "reported": 4.5}
{"compound": "C1CC2CCNC3CCNC(C1)N23 (stereo not drawn) [NSC81462, dodecahydro-1,4,9b-triazaphenalene]", "system under test": "T. gondii tachyzoites RH strain", "reported": 12.0}
{"compound": "NS(=O)(=O)c1ccc(Cl)cc1[N+](=O)[O-] [NSC81213, 4-chloro-2-nitrobenzene-1-sulfonamide]", "system under test": "T. gondii tachyzoites RH strain", "reported": 5.2}
{"compound": "CCOC1CCc2c(C)nc(N)nc2S1 (stereo not drawn)", "system under test": "T. gondii tachyzoites RH strain", "reported": 25}
